Each recorded value in this set is attributed to ChEMBL document CHEMBL3102796.

System: Influenza A virus
test.name: Antiviral activity against Influenza A virus A/Hong Kong/8/1968 (H3N2) infected in MDCK cells assessed as reduction in virus plaque formation after 5 days
Format: functional, organism-based
measurement.parameters: 120 h
measure: pIC50
Give bare numbers, as −log10 of the molar value.

CC(=O)N[C@H]1[C@H]([C@H](O)[C@H](O)CO)OC(SCCCCCCCCCCCCSC2(C(=O)O)C[C@H](NC(=N)N)[C@@H](NC(C)=O)[C@H]([C@H](O)[C@H](O)CO)O2)(C(=O)O)C[C@@H]1NC(=N)N (stereo not given in full): 7.00

State the recorded pIC50 for every item in the following list.
1. CC(=O)N[C@H]1[C@H]([C@H](O)[C@H](O)CO)OC(SCCOCCOCCOCCOCCOCCSC2(C(=O)O)C[C@H](N)[C@@H](NC(C)=O)[C@H]([C@H](O)[C@H](O)CO)O2)(C(=O)O)C[C@@H]1N (stereo not given in full)
2. CC(=O)N[C@H]1[C@H]([C@H](O)[C@H](O)CO)OC(SCCOCCOCCOCCOCCSC2(C(=O)O)C[C@H](N)[C@@H](NC(C)=O)[C@H]([C@H](O)[C@H](O)CO)O2)(C(=O)O)C[C@@H]1N (stereo not given in full)
3. CC(=O)N[C@H]1[C@H]([C@H](O)[C@H](O)CO)OC(SCCCCCCS)(C(=O)O)C[C@@H]1N (stereo not given in full)
4. CC(=O)N[C@H]1[C@H]([C@H](O)[C@H](O)CO)OC(SCCOCCOCCOCCSC2(C(=O)O)C[C@H](NC(=N)N)[C@@H](NC(C)=O)[C@H]([C@H](O)[C@H](O)CO)O2)(C(=O)O)C[C@@H]1NC(=N)N (stereo not given in full)

A:
1. 6.00
2. 6.00
3. 5.00
4. 7.00
